target: Insulin-like growth factor 1 receptor (Homo sapiens); assay: Activity at pre-activated human GST-His6-tagged IGF-1R expressed in Sf9 cells assessed as initial phosphorylation rate at 10 uM measured every 2 mins for 60 mins by Michaelis-Menten constant based ADP Quest assay
Sequence (P08069 31-736 limits assumed): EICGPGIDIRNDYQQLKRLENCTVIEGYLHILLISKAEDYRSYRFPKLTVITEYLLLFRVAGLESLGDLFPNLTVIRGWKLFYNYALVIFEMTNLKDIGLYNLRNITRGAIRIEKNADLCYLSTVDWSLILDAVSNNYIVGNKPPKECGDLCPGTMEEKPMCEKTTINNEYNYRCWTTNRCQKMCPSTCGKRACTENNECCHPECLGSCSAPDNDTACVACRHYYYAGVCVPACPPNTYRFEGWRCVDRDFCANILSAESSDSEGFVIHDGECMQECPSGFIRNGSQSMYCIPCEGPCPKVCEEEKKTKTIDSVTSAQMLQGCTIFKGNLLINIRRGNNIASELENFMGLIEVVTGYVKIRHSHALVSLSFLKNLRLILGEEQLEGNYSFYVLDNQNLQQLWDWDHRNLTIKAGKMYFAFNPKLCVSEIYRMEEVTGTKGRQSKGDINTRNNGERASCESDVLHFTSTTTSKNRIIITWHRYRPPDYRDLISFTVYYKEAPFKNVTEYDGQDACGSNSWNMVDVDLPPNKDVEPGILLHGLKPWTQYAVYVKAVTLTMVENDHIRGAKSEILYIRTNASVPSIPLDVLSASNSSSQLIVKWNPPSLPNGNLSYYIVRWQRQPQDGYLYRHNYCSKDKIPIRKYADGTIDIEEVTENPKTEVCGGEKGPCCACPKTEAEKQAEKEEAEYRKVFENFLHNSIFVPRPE
Sequence (P08069 741-1367 limits assumed): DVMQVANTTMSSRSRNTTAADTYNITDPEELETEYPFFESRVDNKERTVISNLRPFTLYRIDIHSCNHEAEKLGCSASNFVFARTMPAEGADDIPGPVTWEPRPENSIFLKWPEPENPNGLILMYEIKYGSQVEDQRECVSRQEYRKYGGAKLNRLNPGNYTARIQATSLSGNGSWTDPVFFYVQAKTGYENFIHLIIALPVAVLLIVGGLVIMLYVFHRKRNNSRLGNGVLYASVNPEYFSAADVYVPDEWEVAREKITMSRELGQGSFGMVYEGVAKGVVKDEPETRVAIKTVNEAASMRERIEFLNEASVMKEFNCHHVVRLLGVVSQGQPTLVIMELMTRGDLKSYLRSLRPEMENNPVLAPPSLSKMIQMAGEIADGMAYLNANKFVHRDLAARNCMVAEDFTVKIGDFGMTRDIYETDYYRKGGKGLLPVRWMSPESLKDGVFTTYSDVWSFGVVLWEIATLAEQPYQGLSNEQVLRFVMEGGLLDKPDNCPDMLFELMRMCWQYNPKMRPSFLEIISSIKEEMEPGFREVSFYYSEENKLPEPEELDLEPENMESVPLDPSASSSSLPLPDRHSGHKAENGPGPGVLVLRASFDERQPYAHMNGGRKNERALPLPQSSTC
Peptide text beside a SMILES is read from it.
Hi there, I'd appreciate the recorded Activity for every entry that follows.
// units = nM/s; emit number, no label

Which Activity reading was recorded for the molecule CNC(=O)[C@H](Cc1c[nH]c2ccccc12)NC(=O)[C@H](CCC(=O)O)NC(=O)[C@H](Cc1ccccc1)NC(=O)[C@H](Cc1ccc(O)cc1)NC(=O)[C@H](Cc1cccnc1)NC(C)=O ?
0.4

Continue with CNC(=O)[C@H](Cc1c[nH]c2ccccc12)NC(=O)[C@H](CCC(=O)O)NC(=O)[C@H](Cc1ccccc1)NC(=O)[C@H](Cc1ccc(O)cc1)NC(=O)[C@H](CC(N)=O)NC(C)=O (HELM PEPTIDE1{[ac].N.Y.F.E.W.[CN[*:1]]}$$$$V2.0)
2.8
